molecular target: acetylcholine receptor; test: SPR, acetylcholine receptor on CM5 chip, peptide 10 µM
Binding affinity (RU) values by entry
Express it in RU; write the number only.

// below: answered binders
Output Binding affinity (RU) of KSQRRK [6mer-2-572] 148

Identify the reported Binding affinity (RU) for the following entry. RSFRRK [6mer-2-585] 136

Output measured Binding affinity (RU) for this item: RVYYKR [6mer-2-570] 148

Further cases:
State its Binding affinity (RU) for this binder: RSVSKK [6mer-2-555] 154

Return the recorded Binding affinity (RU) value; entry: RLQCRR [6mer-2-548] 142

Using known records, supply Binding affinity (RU) for RSQLKR [6mer-2-593] 139
